System: KM12
Test: Anticancer activity against human KM12 cells
Assay type: functional, cell-based

- record smiles: "O=C1/C(=C/c2ccc(Cl)cc2)CN(C(=O)CCSCCO)C/C1=C\\c1ccc(Cl)cc1"
  IC50, µM: 0.19
- record smiles: "COc1ccc(/C=C2\\CN(C(=O)CCSCCS(=O)(=O)O)C/C(=C\\c3ccc(OC)cc3)C2=O)cc1"
  IC50, µM: 30.2
- record smiles: "O=C1/C(=C/c2ccc([N+](=O)[O-])cc2)CN(C(=O)CCSCCO)C/C1=C\\c1ccc([N+](=O)[O-])cc1"
  IC50, µM: 0.17
- record smiles: "COc1ccc(/C=C2\\CN(C(=O)CCSCCO)C/C(=C\\c3ccc(OC)cc3)C2=O)cc1"
  IC50, µM: 1.98
- record smiles: "O=C1/C(=C/c2ccc(Cl)cc2)CN(C(=O)CCSCCS(=O)(=O)O)C/C1=C\\c1ccc(Cl)cc1"
  IC50, µM: 25.1
- record smiles: "O=c1[nH]cc(F)c(=O)[nH]1"
  IC50, µM: 8.32

Reference source for all entries: ChEMBL document CHEMBL1772966
